Every entry's value here was drawn from patent US9062041B2.

Listed below: pIC50 values for each entry.
measurement_target: EP2 subtype of the human PGE2 receptor (Homo sapiens)
Sequence (P43116 whole entry): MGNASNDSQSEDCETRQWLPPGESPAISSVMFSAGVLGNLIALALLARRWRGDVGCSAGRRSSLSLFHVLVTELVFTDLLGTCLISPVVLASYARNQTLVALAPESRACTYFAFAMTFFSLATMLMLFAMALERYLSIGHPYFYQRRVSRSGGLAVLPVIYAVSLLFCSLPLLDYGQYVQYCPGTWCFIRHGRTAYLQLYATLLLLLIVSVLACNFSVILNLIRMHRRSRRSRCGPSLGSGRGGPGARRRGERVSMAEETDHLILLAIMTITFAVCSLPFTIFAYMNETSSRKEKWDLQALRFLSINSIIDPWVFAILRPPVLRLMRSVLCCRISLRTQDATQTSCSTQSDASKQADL
method_notes: cAMP antagonism test on the human EP2 receptor (HTRF cAMP detection)
Assay type: cell-based
experimental_parameters: hEP2 receptor, read-out: Antagonism hEP2 IC50
pIC50: −log10 of the molar value.
assay_endpoint: pIC50

>>> df
                                    compound  result_value
 0  COCCNC(=O)c1ccc2nn(CC3CCN(C(=O)c4ccc(Cl)cc4)CC3)cc2c1OC          7.48
 1  COCCNC(=O)c1ccc2nn(CC3CCN(C(=O)c4ccc(Oc5ccc(C#N)cc5)cc4)CC3)cc2c1C          8.02
 2  O=C(NCCOCC1CC1)c1ccc2nn(CC3CCN(C(=O)c4ccc(Cl)cc4)CC3)cc2c1OCC(F)(F)F          7.78
 3  COCCNC(=O)c1ccc2nn(CC3CCN(C(=O)c4ccc(-c5cnc(C(F)(F)F)nc5)cc4)CC3)cc2c1C          7.71
 4  COCCNC(=O)c1ccc2nn(CC3CCN(C(=O)c4ccc(C(F)(F)F)cc4F)CC3)cc2c1C          8.06
 5  Cc1c(C(=O)NCCC#N)ccc2nn(CC3CCN(C(=O)c4ccc(-c5ccc(F)cc5)cc4)CC3)cc12          7.94
 6  Cc1c(C(=O)NCC(F)(F)F)ccc2nn(CC3CCN(C(=O)c4nc5ccccc5s4)CC3)cc12          6.88
 7  COCCNC(=O)c1ccc2nn(CC3CCN(C(=O)c4ccc(OC5CCCC5)cc4)CC3)cc2c1C          8.51
 8  COCCNC(=O)c1ccc2nn(CC3CCN(C(=O)c4ccc(-c5cnc(C)nc5)cc4)CC3)cc2c1C          7.20
 9  COCCNC(=O)c1ccc2nn(CC3CCN(C(=O)c4ccc(-c5ccc(C(F)(F)F)cc5)cc4)CC3)cc2c1C          8.20
10  O=C(NCCOCC1CC1)c1ccc2nn(CC3CCN(C(=O)c4ccc(-c5ccc(F)cc5)cc4)CC3)cc2c1OC(F)F          7.88
11  CCOc1c(C(=O)NCCOC)ccc2nn(CC3CCN(C(=O)c4ccc(Cl)cc4)CC3)cc12          7.35
12  COCCNC(=O)c1ccc2nn(CC3CCN(C(=O)c4nc5ccccc5n4C)CC3)cc2c1C          7.55
13  Cc1c(C(=O)NCC2COCCO2)ccc2nn(CC3CN(C(=O)c4ccc(Cl)cc4)C3)cc12 (racemic) [Example 141]          6.84
14  Cc1c(C(=O)NCC2CCCCO2)ccc2nn(CC3CCN(C(=O)c4ccc(Cl)cc4)CC3)cc12 (single isomer, unassigned) [Example 241]          8.04

* * *

measurement_target: UniProtKB P35408
Sequence (P35408 whole entry): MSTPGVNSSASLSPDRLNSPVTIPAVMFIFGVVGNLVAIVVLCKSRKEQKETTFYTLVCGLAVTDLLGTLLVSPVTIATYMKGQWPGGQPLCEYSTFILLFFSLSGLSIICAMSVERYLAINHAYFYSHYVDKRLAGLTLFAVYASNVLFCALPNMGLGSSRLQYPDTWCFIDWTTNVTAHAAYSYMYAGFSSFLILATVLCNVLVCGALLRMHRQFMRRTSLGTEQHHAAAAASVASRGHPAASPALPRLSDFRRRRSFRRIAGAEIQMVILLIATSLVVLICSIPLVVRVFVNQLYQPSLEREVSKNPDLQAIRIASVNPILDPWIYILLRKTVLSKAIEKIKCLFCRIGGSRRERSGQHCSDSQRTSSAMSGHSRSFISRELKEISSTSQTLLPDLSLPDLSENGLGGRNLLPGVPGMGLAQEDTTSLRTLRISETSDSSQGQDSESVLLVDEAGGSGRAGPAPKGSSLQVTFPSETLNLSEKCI
method_notes: cAMP antagonism test on the human EP4 receptor (HTRF cAMP detection)
Format: cell-based
experimental_parameters: selectivity towards hEP4, IC50 measured by cAMP antagonism test
assay_endpoint: Selectivity hEP2/hEP4

In [3]: df
Out[3]:
                                   molecule         assay_endpoint     result_value
0  COCCNC(=O)c1ccc2nn(CC3CCN(C(=O)c4ccc(C#N)cc4)CC3)cc2c1C  Selectivity hEP2/hEP4  xxx (xxx > 100)
1  Cc1c(C(=O)NCC(C)C)ccc2nn(CC3CCN(C(=O)c4ccc(Cl)cc4)CC3)cc12  Selectivity hEP2/hEP4  xx (xx: 10-100)
2  COCCNC(=O)c1ccc2nn(CC3CN(C(=O)c4ccc(Oc5ccc(F)cc5)cc4)C3)cc2c1C  Selectivity hEP2/hEP4  xxx (xxx > 100)
3  Cc1cc2nn(CC3CCN(C(=O)c4cccc(C(F)(F)F)c4)CC3)cc2cc1C(=O)NCCN1CCOCC1  Selectivity hEP2/hEP4  xx (xx: 10-100)
4  COCCNC(=O)c1ccc2nn(CC3CCN(C(=O)c4ccc(-c5ccc(F)cc5)cc4)CC3)cc2c1OC(F)F  Selectivity hEP2/hEP4  xxx (xxx > 100)
5  Cc1c(C(=O)NCC(C)OCC2CC2)ccc2nn(CC3CCN(C(=O)c4ccc(C5CC5)cc4)CC3)cc12 (racemic)  Selectivity hEP2/hEP4  xxx (xxx > 100)
6  COCCNC(=O)c1ccc2nn(CC3CCN(C(=O)c4ccc(Oc5ccc(Cl)cc5)cc4)CC3)cc2c1C  Selectivity hEP2/hEP4  xxx (xxx > 100)

* * *

measurement_target: UniProt Q13258
method_notes: cAMP antagonism test on the human prostaglandin D receptor (HTRF cAMP detection)
Format: cell-based
experimental_parameters: selectivity towards hDP, IC50 measured by cAMP antagonism test
assay_endpoint: Selectivity hEP2/hDP

                                   molecule     result_value
0  COCCNC(=O)c1ccc2nn(CC3CCN(C(=O)c4cccc(C(F)(F)F)c4)CC3)cc2c1C  xxx (xxx > 100)
1  Cc1c(C(=O)NCC2COCCO2)ccc2nn(CC3CCN(C(=O)c4ccc(-c5ccc(F)cc5)cc4)CC3)cc12 (racemic)  xxx (xxx > 100)
2  Cc1c(C(=O)NCCO)ccc2nn(CC3CCN(C(=O)c4ccc(-c5ccc(F)cc5)cc4)CC3)cc12  xxx (xxx > 100)
3  COCCNC(=O)c1ccc2nn(CC3CCN(C(=O)c4ccc(-n5cncn5)cc4)CC3)cc2c1C  xxx (xxx > 100)
4  COCCNC(=O)c1ccc2nn(CC3CCN(C(=O)c4ccc(C(F)(F)F)cc4)CC3)cc2c1C  xxx (xxx > 100)
5  Cc1c(C(=O)NCC(F)(F)F)ccc2nn(CC3CCN(C(=O)c4cc5ccccc5n4C)CC3)cc12  xxx (xxx > 100)
6  Cc1c(C(=O)NCC2CCC2)ccc2nn(CC3CCN(C(=O)c4ccc(Oc5ccc(C(F)(F)F)cc5)cc4)CC3)cc12  xxx (xxx > 100)

* * *

measurement_target: human PGD receptor (Homo sapiens)
Sequence (Q13258 1-359): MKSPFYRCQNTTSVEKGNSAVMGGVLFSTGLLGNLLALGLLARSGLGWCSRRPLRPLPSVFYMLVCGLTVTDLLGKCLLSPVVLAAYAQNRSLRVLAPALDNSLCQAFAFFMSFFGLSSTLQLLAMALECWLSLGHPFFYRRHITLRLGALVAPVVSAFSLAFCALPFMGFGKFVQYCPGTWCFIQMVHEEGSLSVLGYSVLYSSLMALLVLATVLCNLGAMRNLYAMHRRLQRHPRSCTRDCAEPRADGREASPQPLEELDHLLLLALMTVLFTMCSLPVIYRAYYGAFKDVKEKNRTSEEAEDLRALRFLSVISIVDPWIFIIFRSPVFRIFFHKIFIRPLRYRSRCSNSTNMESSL
method_notes: cAMP antagonism test on the human prostaglandin D receptor (HTRF cAMP detection)
Assay type: cell-based
experimental_parameters: selectivity towards hDP, IC50 measured by cAMP antagonism test
assay_endpoint: Selectivity hEP2/hDP

In [3]: df
Out[3]:
                         structure_notation     result_value
0  COCCNC(=O)c1cc2cn(CC3CCN(C(=O)c4ccc(Cl)cc4)CC3)nc2cc1C  xxx (xxx > 100)
1  COCCNC(=O)c1cc2cn(CC3CCN(C(=O)c4cn(C)c5ccccc45)CC3)nc2cc1C  xxx (xxx > 100)
2  COCCNC(=O)c1ccc2nn(CC3CCN(C(=O)c4ccc(Oc5ccc(F)c(F)c5)cc4)CC3)cc2c1C  xxx (xxx > 100)
3  Cc1c(C(=O)NCCS(C)(=O)=O)ccc2nn(CC3CCN(C(=O)c4ccc(Oc5ccc(C(F)(F)F)cc5)cc4)CC3)cc12  xxx (xxx > 100)
4  Cc1c(C(=O)NCCS(C)(=O)=O)ccc2nn(CC3CCN(C(=O)c4ccc(Oc5ccc(C(F)(F)F)nc5)cc4)CC3)cc12  xxx (xxx > 100)
5  COCCNC(=O)c1ccc2nn(CC3CCN(C(=O)c4ccc(OC(F)F)cc4)CC3)cc2c1C  xxx (xxx > 100)

* * *

measurement_target: UniProtKB P35408
method_notes: cAMP antagonism test on the human EP4 receptor (HTRF cAMP detection)
Type: cell-based
experimental_parameters: selectivity towards hEP4, IC50 measured by cAMP antagonism test
Source text: 2. Detection of Antagonism to the Human Prostaglandin E2 (Subtype EP4) Receptor Signal The binding of PGE2 to the EP4 subtype of the human PGE2 receptor induces the activation of membrane-located adenylate cyclases and leads to the formation of cAMP. […] In this test, the cAMP present in the lysate competes with a fluorescence-labelled cAMP (cAMP-d2) for binding to an Eu cryptate-labelled anti-cAMP antibody. […]
assay_endpoint: Selectivity hEP2/hEP4

                         structure_notation         assay_endpoint     result_value
0  Cc1c(C(=O)NCC(F)(F)F)ccc2nn(CC3CCN(C(=O)c4ccc(Oc5ccc(C(F)(F)F)nc5)cc4)CC3)cc12  Selectivity hEP2/hEP4  xxx (xxx > 100)
1  COCCNC(=O)c1ccc2nn(CC3CN(C(=O)c4cc5cc(OC)ccc5n4C)C3)cc2c1C  Selectivity hEP2/hEP4  xxx (xxx > 100)
2  COCCNC(=O)c1ccc2nn(CC3CCN(C(=O)c4ccc(C(C)(C)C#N)cc4)CC3)cc2c1C  Selectivity hEP2/hEP4  xxx (xxx > 100)
